Just for reference, ChEMBL document CHEMBL3763108 is where these values come from.

target_entity: Cholinesterases; ACHE & BCHE (Homo sapiens) (UniProt P06276+P22303)
Sequence (P06276 whole entry, looked up): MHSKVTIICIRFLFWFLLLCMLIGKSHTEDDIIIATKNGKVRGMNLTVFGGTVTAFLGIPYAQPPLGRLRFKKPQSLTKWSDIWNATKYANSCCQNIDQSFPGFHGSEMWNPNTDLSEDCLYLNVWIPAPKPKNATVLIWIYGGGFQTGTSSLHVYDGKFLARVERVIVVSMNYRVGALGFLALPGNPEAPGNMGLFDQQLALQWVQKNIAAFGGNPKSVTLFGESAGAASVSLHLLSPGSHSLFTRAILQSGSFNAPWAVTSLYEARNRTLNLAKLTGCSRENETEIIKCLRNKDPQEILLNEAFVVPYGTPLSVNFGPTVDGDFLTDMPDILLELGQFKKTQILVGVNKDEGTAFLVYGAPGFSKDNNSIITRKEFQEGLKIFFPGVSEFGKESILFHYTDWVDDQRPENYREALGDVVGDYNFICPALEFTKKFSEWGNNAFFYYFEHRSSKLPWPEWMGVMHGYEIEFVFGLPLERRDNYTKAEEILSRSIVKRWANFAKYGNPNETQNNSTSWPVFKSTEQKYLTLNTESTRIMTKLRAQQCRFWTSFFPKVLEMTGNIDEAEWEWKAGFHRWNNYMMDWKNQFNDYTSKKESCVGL
Sequence (P22303 whole entry, looked up): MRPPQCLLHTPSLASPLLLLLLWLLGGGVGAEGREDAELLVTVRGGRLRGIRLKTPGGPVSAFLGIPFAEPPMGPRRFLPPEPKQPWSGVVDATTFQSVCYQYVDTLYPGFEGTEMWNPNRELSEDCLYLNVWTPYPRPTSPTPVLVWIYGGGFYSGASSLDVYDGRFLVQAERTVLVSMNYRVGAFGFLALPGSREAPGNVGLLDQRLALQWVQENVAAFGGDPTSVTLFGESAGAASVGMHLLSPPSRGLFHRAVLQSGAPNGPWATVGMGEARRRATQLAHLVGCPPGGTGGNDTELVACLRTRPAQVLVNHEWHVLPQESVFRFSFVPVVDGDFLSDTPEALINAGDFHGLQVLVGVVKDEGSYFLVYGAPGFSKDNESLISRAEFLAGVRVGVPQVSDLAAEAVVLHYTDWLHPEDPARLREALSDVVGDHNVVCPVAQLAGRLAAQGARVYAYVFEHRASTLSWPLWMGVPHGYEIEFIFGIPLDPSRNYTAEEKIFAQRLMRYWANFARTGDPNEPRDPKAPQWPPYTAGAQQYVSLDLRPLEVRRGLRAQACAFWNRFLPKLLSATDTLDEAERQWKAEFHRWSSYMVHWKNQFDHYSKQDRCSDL
protocol_description: Selectivity ratio of IC50 for AChE (unknown origin) to IC50 for BChE (unknown origin) by Ellman's kinetic method
# label = T if Ratio IC50 < 0.2 else F

Sample answers from the record:
>  <compound>
Cc1ccc2c(c1)C1(C(=O)N2)C(C#N)=C(N)N2CCCNC2=C1[N+](=O)[O-] (stereo not given)

>  <class>
T

$$$$
>  <compound>
N#CC1=C(N)N(Cc2ccccc2)C(NCc2ccccc2)=C([N+](=O)[O-])C12C(=O)Nc1ccc([N+](=O)[O-])cc12 (stereo not given)

>  <class>
F

$$$$

Confirm or reject: Ratio IC50 of CC1(C)CNC2=C([N+](=O)[O-])C3(C(=O)c4ccc(Br)c5c(Br)ccc3c45)C(C#N)=C(N)N2C1 (stereo not given) lies strictly below 0.2
F

Confirm or reject: Ratio IC50 of N#CC1=C(N)N2CCCNC2=C([N+](=O)[O-])C12C(=O)Nc1ccc(F)cc12 (stereo not given) lies strictly below 0.2
T

---

Here's what we have: pIC50 numbers for Acetylcholinesterase (Homo sapiens).
Notebook: values listed as pIC50 are -log10 of the concentration (mol/L).

Here is how some compounds turned out for pIC50.
>  <compound>
N#CC1=C(N)N2CCCNC2=C([N+](=O)[O-])C12C(=O)c1ccc(Br)c3c(Br)ccc2c13 (stereo not drawn)

>  <pIC50>
5.17

$$$$
>  <compound>
N#CC1=C(N)N(Cc2ccccc2)C(NCc2ccccc2)=C([N+](=O)[O-])C12C(=O)Nc1ccc(F)cc12 (stereo not drawn)

>  <pIC50>
5.45

$$$$
>  <compound>
N#CC1=C(N)N2CCCNC2=C([N+](=O)[O-])C12C(=O)c1cccc3cccc2c13 (stereo not drawn)

>  <pIC50>
5.18

$$$$

Item Cc1ccc2c(c1)C1(C(=O)N2)C(C#N)=C(N)N2CC(C)(C)CNC2=C1[N+](=O)[O-] (stereo not drawn) ; assay system Acetylcholinesterase (Homo sapiens); pIC50 reported as 5.86

Item N#CC1=C(N)N2CCNC2=C([N+](=O)[O-])C12C(=O)c1cccc3cccc2c13 (stereo not drawn) ; assay system Acetylcholinesterase (Homo sapiens); pIC50 reported as 5.15

Item N#CC1=C(N)N2CCNC2=C([N+](=O)[O-])C12C(=O)Nc1ccc([N+](=O)[O-])cc12 (stereo not drawn) ; assay system Acetylcholinesterase (Homo sapiens); pIC50 reported as 5.49

Item N#CC1=C(N)N2CCNC2=C([N+](=O)[O-])C12C(=O)Nc1ccc(F)cc12 (stereo not drawn) ; assay system Acetylcholinesterase (Homo sapiens); pIC50 reported as 5.48

Item CC1(C)CNC2=C([N+](=O)[O-])C3(C(=O)Nc4ccc([N+](=O)[O-])cc43)C(C#N)=C(N)N2C1 (stereo not drawn) ; assay system Acetylcholinesterase (Homo sapiens); pIC50 reported as 5.81

---

target_entity: Cholinesterases; ACHE & BCHE (Homo sapiens) (UniProt P06276+P22303)
protocol_description: Selectivity ratio of IC50 for BChE (unknown origin) to IC50 for AChE (unknown origin) by Ellman's kinetic method
recorded_metric: Ratio IC50
Lab note: jot the number down without any unit.

>  <molecule>
N#CC1=C(N)N2CCNC2=C([N+](=O)[O-])C12C(=O)c1ccc(Br)c3c(Br)ccc2c13 (configuration not stated)

>  <Ratio IC50>
4.09

$$$$
>  <molecule>
N#CC1=C(N)N2CCNC2=C([N+](=O)[O-])C12C(=O)Nc1ccccc12 (configuration not stated)

>  <Ratio IC50>
2.77

$$$$

Ratio IC50 reported for this molecule N#CC1=C(N)N(Cc2ccccc2)C(NCc2ccccc2)=C([N+](=O)[O-])C12C(=O)c1ccc(Br)c3c(Br)ccc2c13 (configuration not stated) : 4.26

Ratio IC50 reported for this molecule N#CC1=C(N)N2CCCNC2=C([N+](=O)[O-])C12C(=O)Nc1ccc([N+](=O)[O-])cc12 (configuration not stated) : 10.8

Ratio IC50 reported for this molecule Cc1ccc2c(c1)C1(C(=O)N2)C(C#N)=C(N)N(Cc2ccccc2)C(NCc2ccccc2)=C1[N+](=O)[O-] (configuration not stated) : 3.64

Ratio IC50 reported for this molecule N#CC1=C(N)N(Cc2ccccc2)C(NCc2ccccc2)=C([N+](=O)[O-])C12C(=O)Nc1ccc(F)cc12 (configuration not stated) : 4.26

---

target_entity: Cholinesterase (Homo sapiens)
Sequence (P06276 whole entry): as the sequence (P06276 whole entry, looked up) above
recorded_metric: IC50
Entry format: amount then unit.

>  <compound>
CC1(C)CNC2=C([N+](=O)[O-])C3(C(=O)Nc4ccc([N+](=O)[O-])cc43)C(C#N)=C(N)N2C1 (stereo not drawn)

>  <IC50>
11.9 µM

$$$$
>  <compound>
N#CC1=C(N)N2CCCNC2=C([N+](=O)[O-])C12C(=O)Nc1ccccc12 (stereo not drawn)

>  <IC50>
8.93 µM

$$$$

Item N#CC1=C(N)N(Cc2ccccc2)C(NCc2ccccc2)=C([N+](=O)[O-])C12C(=O)c1cccc3cccc2c13 (stereo not drawn) ; assay system Cholinesterase (Homo sapiens); IC50 reported as 23.8 µM

Item N#CC1=C(N)N(Cc2ccccc2)C(NCc2ccccc2)=C([N+](=O)[O-])C12C(=O)Nc1ccc(F)cc12 (stereo not drawn) ; assay system Cholinesterase (Homo sapiens); IC50 reported as 15.1 µM

Item N#CC1=C(N)N(Cc2ccccc2)C(NCc2ccccc2)=C([N+](=O)[O-])C12C(=O)Nc1ccc([N+](=O)[O-])cc12 (stereo not drawn) ; assay system Cholinesterase (Homo sapiens); IC50 reported as 15 µM

Item CC1(C)CNC2=C([N+](=O)[O-])C3(C(=O)Nc4ccc(F)cc43)C(C#N)=C(N)N2C1 (stereo not drawn) ; assay system Cholinesterase (Homo sapiens); IC50 reported as 15.9 µM

Item N#CC1=C(N)N2CCNC2=C([N+](=O)[O-])C12C(=O)Nc1ccccc12 (stereo not drawn) ; assay system Cholinesterase (Homo sapiens); IC50 reported as 13.5 µM

Item CC1(C)CNC2=C([N+](=O)[O-])C3(C(=O)Nc4ccccc43)C(C#N)=C(N)N2C1 (stereo not drawn) ; assay system Cholinesterase (Homo sapiens); IC50 reported as 10.4 µM

---

target_entity: Cholinesterases; ACHE & BCHE (Homo sapiens) (UniProt P06276+P22303)
protocol_description: Selectivity ratio of IC50 for BChE (unknown origin) to IC50 for AChE (unknown origin) by Ellman's kinetic method
# label = Yes if Ratio IC50 < 5 else No

>  <compound>
Cc1ccc2c(c1)C1(C(=O)N2)C(C#N)=C(N)N2CCCNC2=C1[N+](=O)[O-] (stereo not drawn)

>  <class>
No

$$$$
>  <compound>
N#CC1=C(N)N(Cc2ccccc2)C(NCc2ccccc2)=C([N+](=O)[O-])C12C(=O)c1cccc3cccc2c13 (stereo not drawn)

>  <class>
Yes

$$$$
>  <compound>
N#CC1=C(N)N2CCCNC2=C([N+](=O)[O-])C12C(=O)Nc1ccc(F)cc12 (stereo not drawn)

>  <class>
No

$$$$

Confirm or reject: Ratio IC50 of CC1(C)CNC2=C([N+](=O)[O-])C3(C(=O)c4cccc5cccc3c45)C(C#N)=C(N)N2C1 (stereo not drawn) lies strictly below 5
Yes

Confirm or reject: Ratio IC50 of CC1(C)CNC2=C([N+](=O)[O-])C3(C(=O)Nc4ccc([N+](=O)[O-])cc43)C(C#N)=C(N)N2C1 (stereo not drawn) lies strictly below 5
No

Confirm or reject: Ratio IC50 of N#CC1=C(N)N(Cc2ccccc2)C(NCc2ccccc2)=C([N+](=O)[O-])C12C(=O)Nc1ccc([N+](=O)[O-])cc12 (stereo not drawn) lies strictly below 5
Yes

Confirm or reject: Ratio IC50 of N#CC1=C(N)N2CCCNC2=C([N+](=O)[O-])C12C(=O)Nc1ccccc12 (stereo not drawn) lies strictly below 5
No

---

target_entity: Cholinesterases; ACHE & BCHE (Homo sapiens) (UniProt P06276+P22303)
protocol_description: Selectivity ratio of IC50 for AChE (unknown origin) to IC50 for BChE (unknown origin) by Ellman's kinetic method
recorded_metric: Ratio IC50
Lab note: jot the number down without any unit.

Here is how some compounds turned out for Ratio IC50.
>  <compound>
CC1(C)CNC2=C([N+](=O)[O-])C3(C(=O)Nc4ccc([N+](=O)[O-])cc43)C(C#N)=C(N)N2C1 (centres undefined)

>  <Ratio IC50>
0.13

$$$$
>  <compound>
N#CC1=C(N)N2CCCNC2=C([N+](=O)[O-])C12C(=O)c1cccc3cccc2c13 (centres undefined)

>  <Ratio IC50>
0.252

$$$$
>  <compound>
CC1(C)CNC2=C([N+](=O)[O-])C3(C(=O)c4cccc5cccc3c45)C(C#N)=C(N)N2C1 (centres undefined)

>  <Ratio IC50>
0.303

$$$$

Let us move to another entry and its Ratio IC50.
Ratio IC50 reported for this compound N#CC1=C(N)N2CCCNC2=C([N+](=O)[O-])C12C(=O)Nc1ccc([N+](=O)[O-])cc12 (centres undefined) : 0.092
